Recorded pIC50 for the following compounds
Test system: histone H3 Lysine 14 acetylation (HBO1 mediated) in U2OS cells
Assay: Histone H3 Lysine 14 Acetylation Biomarker Assay (384-well, U2OS)
Assay type: cell-based
Conditions: Homo sapiens, serum free medium, 24 hours incubation
Bear in mind: pIC50 is minus log10 of a mol/L concentration; give just that figure.

Examples with their reported pIC50 follow.
O=C(NCC(c1ccccc1)c1ncco1)C1=Nc2ccc(-c3c[nH]nn3)cc2S(=O)(=O)N1 (centres unmarked) [Example 213] : 5.31
O=C(NCCc1ccccc1-c1n[nH]c(=O)o1)C1=Nc2ccc(I)cc2S(=O)(=O)N1 [Example 172] : 5.54
O=C(NCC(c1cccc(O)c1)c1ncco1)C1=Nc2ccc(Cl)cc2S(=O)(=O)N1 (centres unmarked) [Example 216] : 4.85
O=C(NCC(c1ccccc1)c1nnc(CC(F)(F)F)o1)C1=Nc2ccc(I)cc2S(=O)(=O)N1 (centres unmarked) [Example 181] : 4.45

Note pIC50 for the compound shown: COCc1cnn(-c2ccccc2CCNC(=O)C2=Nc3ccc(I)cc3S(=O)(=O)N2)n1 [Example 239] 4.72

* * *

Each entry below carries its reported IC50.
Target: MOF-KAT8 (Homo sapiens, UniProt Q9H7Z6)
Sequence (Q9H7Z6 177-447): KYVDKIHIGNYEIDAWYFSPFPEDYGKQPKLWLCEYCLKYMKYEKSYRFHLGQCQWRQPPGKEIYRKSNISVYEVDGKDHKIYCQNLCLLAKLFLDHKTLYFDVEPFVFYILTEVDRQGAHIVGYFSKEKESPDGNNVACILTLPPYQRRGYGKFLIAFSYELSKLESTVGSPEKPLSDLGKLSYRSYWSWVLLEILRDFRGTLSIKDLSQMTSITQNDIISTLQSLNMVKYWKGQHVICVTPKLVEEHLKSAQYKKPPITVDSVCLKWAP
Assay: Acetyltransferase biochemical assay (AlphaScreen), KAT8
Settings: Table 4 (MOF-KAT8); 0.4 μM Acetyl coenzyme A, histone H4, 20 nM enzyme
Write the numeric value and follow it with the unit.

Some compounds with known IC50 results, for comparison:
COc1ccccc1C(CNC(=O)C1=Nc2ccc(I)cc2S(=O)(=O)N1)c1ncco1 (stereo not shown) : 9.22 µM
O=C(NCC(F)(c1ccccc1)c1ncco1)C1=Nc2ccc(Cl)cc2S(=O)(=O)N1 (stereo not shown) : 29.3 µM
COc1cccc(C(CNC(=O)C2=Nc3ccc(Br)cc3S(=O)(=O)N2)c2ncco2)c1 (stereo not shown) : 39.8 µM

Kindly review the next compound as well.
Dear colleague, please send me the reported IC50 for COC(=O)NC(CNC(=O)C1=Nc2ccccc2S(=O)(=O)N1)C1CCCCC1 (stereo not shown) when you can. 82.5 µM

* * *

Molecular target: MOZ-KAT6A (Homo sapiens, UniProt Q92794, A567V)
Construct: encoding amino acid residues 507 to 778 (Uniprot Q92794-1) of human KAT6A; made in house; host or cells: E. coli BL21 DE3
Sequence (Q92794 507-778 A567V limits assumed): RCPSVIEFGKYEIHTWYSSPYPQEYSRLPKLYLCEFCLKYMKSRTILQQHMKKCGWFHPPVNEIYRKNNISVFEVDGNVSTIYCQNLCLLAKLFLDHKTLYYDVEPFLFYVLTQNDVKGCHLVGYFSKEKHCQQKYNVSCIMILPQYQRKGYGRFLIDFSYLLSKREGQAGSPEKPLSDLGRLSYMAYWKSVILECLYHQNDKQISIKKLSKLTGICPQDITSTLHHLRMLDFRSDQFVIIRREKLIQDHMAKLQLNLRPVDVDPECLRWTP
Test: Acetyltransferase biochemical assay (AlphaScreen), KAT6A
Conditions: Table 2 (MOZ-KAT6A); 10 μM Acetyl coenzyme A, histone H3.1, 5 nM enzyme
Category | rule: reported IC50 within range, see 0 (below 0.7 µM), 1 (0.7 µM to below 8 µM), 2 (8 µM or more)

O=C(NCC(C(=O)N1CCCCC1)c1ccccc1)C1=Nc2ccccc2S(=O)(=O)N1 (stereo not shown) [Example 133] : 2

Record O=C(NCCc1cccnc1)C1=Nc2ccccc2S(=O)(=O)N1 [Example 70] — which class? 2

# classify by IC50 band: Cn1cc(-c2ccc3c(c2)S(=O)(=O)NC(C(=O)NCC(c2ccccc2)c2ncco2)=N3)cn1 (stereo not shown) [Example 25] 0

Which class holds O=C(NCC(c1ccccc1)c1ncco1)C1=Nc2ccc(I)cc2S(=O)(=O)N1 (single isomer, unassigned) [Example 146] ? 0

// return the class label for Cc1ccc(CCNC(=O)C2=Nc3ccccc3S(=O)(=O)N2)cc1 [Example 67] 2

Pick a category. Item: O=C(NCC(c1ccccc1)c1ncco1)C1=Nc2ccc(Br)cc2S(=O)(=O)N1 (single isomer, unassigned) [Example 139] 0

Which class does O=C(NCC(c1ccccc1)c1ccccc1)C1=Nc2ccccc2S(=O)(=O)N1 [Example 68] fall in? 1

Which band does O=C(NCC(c1ccccc1)c1ncco1)C1=Nc2ccc(-c3nccs3)cc2S(=O)(=O)N1 (stereo not shown) [Example 134] fall in? 0

Please let me know in which category the item O=C(NCC(c1ccccc1)c1ncco1)C1=Nc2ccc(F)cc2S(=O)(=O)N1 (single isomer, unassigned) [Example 145] belongs. 1

For O=C(NCC(c1ccccc1)c1ncc[nH]1)C1=Nc2ccccc2S(=O)(=O)N1 (single isomer, unassigned) [Example 152] , which IC50 bin applies? 2

For O=C(NCC(c1ccccc1)c1ccccc1)C1=Nc2ccc(-c3ccn[nH]3)cc2S(=O)(=O)N1 [Example 22] , which IC50 bin applies? 1

Kindly identify the class of CC(CNC(=O)C1=Nc2ccccc2S(=O)(=O)N1)(c1ccccc1)c1ccccc1 [Example 206] . 2

Lab log: CCNC(=O)C(CNC(=O)C1=Nc2ccccc2S(=O)(=O)N1)c1ccccc1 (stereo not shown) [Example 131] — assign IC50 category 2

Consider O=C(NCC(c1ccccc1)n1ccnn1)C1=Nc2ccccc2S(=O)(=O)N1 (stereo not shown) [Example 52] . To which IC50 class does it belong? 2

Each molecule maps to one class by IC50. Which class for O=C(NCC(c1ccccc1)c1ncco1)C1=Nc2ccc(OC(F)(F)F)cc2S(=O)(=O)N1 (stereo not shown) [Example 5] ? 0
